molecular target: Voltage-gated inwardly rectifying potassium channel KCNH2 (Homo sapiens, UniProt Q12809); test: Inhibition of human ERG expressed in HEK293 cells by patch clamp assay
Sequence (Q12809 whole entry): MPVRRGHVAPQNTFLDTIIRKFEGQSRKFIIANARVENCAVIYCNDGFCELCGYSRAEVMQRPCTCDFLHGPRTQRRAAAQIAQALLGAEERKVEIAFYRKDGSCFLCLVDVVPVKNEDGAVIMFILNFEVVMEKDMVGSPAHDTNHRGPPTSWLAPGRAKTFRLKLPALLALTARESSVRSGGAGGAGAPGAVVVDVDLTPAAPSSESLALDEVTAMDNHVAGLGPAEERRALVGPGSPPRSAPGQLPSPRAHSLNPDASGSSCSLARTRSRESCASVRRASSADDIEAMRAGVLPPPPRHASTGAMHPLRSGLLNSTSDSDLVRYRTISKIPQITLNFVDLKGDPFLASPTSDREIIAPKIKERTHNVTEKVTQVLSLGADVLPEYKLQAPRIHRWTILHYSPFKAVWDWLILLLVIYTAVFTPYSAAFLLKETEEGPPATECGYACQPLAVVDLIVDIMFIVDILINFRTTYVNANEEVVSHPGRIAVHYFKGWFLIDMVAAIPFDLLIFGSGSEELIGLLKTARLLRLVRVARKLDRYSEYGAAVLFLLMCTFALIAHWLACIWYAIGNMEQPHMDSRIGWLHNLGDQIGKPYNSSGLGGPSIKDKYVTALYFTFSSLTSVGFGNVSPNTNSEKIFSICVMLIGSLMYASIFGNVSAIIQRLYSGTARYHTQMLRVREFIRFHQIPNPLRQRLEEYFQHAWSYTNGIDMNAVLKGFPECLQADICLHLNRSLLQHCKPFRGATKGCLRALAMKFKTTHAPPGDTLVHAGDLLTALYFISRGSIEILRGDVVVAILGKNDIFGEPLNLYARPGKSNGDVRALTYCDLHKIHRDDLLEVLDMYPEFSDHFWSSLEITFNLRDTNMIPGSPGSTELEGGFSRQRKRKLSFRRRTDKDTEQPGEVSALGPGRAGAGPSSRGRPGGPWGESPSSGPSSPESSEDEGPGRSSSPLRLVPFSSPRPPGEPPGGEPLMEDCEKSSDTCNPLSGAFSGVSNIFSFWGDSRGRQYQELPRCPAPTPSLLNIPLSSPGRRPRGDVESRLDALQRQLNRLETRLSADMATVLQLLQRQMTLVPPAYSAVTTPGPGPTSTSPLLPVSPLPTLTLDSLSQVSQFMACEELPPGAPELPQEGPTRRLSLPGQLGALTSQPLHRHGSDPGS
endpoint.label: IC50 (µM)
Could you give me the number in µM? Just the number is fine.

Examples with their reported IC50 follow.
1. CCn1nc(C2(C)CC2)cc1Nc1nc(-c2ccc(-n3cnc(C)c3)c(OC)n2)cs1 ... 12.3
2. COc1nc(-c2csc(Nc3c4c(nn3CCO)CCCC4)n2)ccc1-n1cnc(C)c1 ... 2.63
3. COc1nc(-c2csc(Nc3c4c(nn3C(C)(C)C)CCCC4)n2)ccc1-n1cnc(C)c1 ... 7.18
4. COc1nc(-c2csc(Nc3c4c(nn3CCF)CCC4)n2)ccc1-n1cnc(C)c1 ... 2.88

Any idea what IC50 was measured for COc1nc(-c2csc(Nc3c4c(nn3C)CCC4)n2)ccc1-n1cnc(C)c1 ?
0.92

Fill in the blank: the reported IC50 of CCn1nc2c(c1Nc1nc(-c3ccc(-n4cnc(C)c4)c(OC)n3)cs1)CCCC2 is ____.
8.6

// IC50 lookup, key: COc1nc(-c2csc(Nc3c4c(nn3CCF)CCCC4)n2)ccc1-n1cnc(C)c1
11.4
